Tested on: DLD-1 cell strain, 5-FU resistant strain, FTD resistant strain
measurementType: Rate of change, 5-FU resistance (fold)
Value expressed in fold; do not type the unit.

Give DLD-1 cell strain, 5-FU resistant strain, FTD resistant strain Rate of change, 5-FU resistance (fold) for miR-378e (ACUGGACUUGGAGUCAGGA; chemistry not fully specified; listed as Homo sapiens)
1.64

Moving on to miR-378i (ACUGGACUAGGAGUCAGAAGG; chemistry not fully specified; listed as Homo sapiens)
0.50

Moving on to miR-378f (ACUGGACUUGGAGCCAGAAG; chemistry not fully specified; listed as Homo sapiens)
0.67

Moving on to miR-378d (ACUGGACUUGGAGUCAGAAA; chemistry not fully specified; listed as Homo sapiens)
1.54

Moving on to miR-378h (ACUGGACUUGGUGUCAGAUGG; chemistry not fully specified; listed as Homo sapiens)
0.00
